Target: T1, PUF4 RNA-binding domain (Saccharomyces cerevisiae, UniProt P25339 537-888)
T1 sequence: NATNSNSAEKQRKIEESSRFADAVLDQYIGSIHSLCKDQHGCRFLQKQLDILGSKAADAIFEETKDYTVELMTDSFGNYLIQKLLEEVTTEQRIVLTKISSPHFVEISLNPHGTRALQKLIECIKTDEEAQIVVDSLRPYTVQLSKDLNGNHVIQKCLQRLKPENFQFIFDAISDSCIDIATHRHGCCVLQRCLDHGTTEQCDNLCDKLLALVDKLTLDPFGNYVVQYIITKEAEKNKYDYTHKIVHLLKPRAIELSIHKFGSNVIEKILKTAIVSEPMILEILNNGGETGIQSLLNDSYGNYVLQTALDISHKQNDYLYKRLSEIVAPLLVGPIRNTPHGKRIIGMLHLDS
Test: Mg; RNA-MaP; 20 mM Na-HEPES pH 7.4, 30 mM KOAc, 0.75 mM MgCl2, 0.1% Tween-20, 5% glycerol, 0.1 mg/mL BSA, 2 mM DTT; 25 C; 0.0125-409.6 nM protein
Conditions: tags: N-His6-TEV cleaved; C-SNAP kept, Cy3B-labelled; label: tethered on chip by stalled RNA polymerase
pKd: −log10 of the molar value.

- Binder: "Ic_S2_P4E.1_K4.1_C4.1_H4.1_A4.1_[T5C]_[T7G]_F4.1_[T8C]_T4.1 (ssRNA) RNA: UUUGAUUAAUAUGAUAUCGUUCUUUCUUGUACAGCAUUCUUUCUCGAUAUCAUAUUAAUCUUU"
  pKd: 6.69
- Binder: "Ie_S2_P4E.1_K4.1_C4.1_H4.1_[+3CCTC]_A4.1_F4.1_T4.1 (ssRNA) RNA: UUUGAUUAAUAUGAUAUCGUUCUUUCUUGUCCUCAUAUUAUUCUUUCUCGAUAUCAUAUUAAUCUUU"
  pKd: 6.97
- Binder: "UCUCUUUGCUUAUUAUUAUCUCUU (ssRNA) [Ie_S1_P5E.1_K5.1_C5.1_H5.1_[+2CT]_A5.1_F5.1_T5.1]"
  pKd: 5.68
- Binder: "Ie_S2_P5E.1_K5.1_C5.1_H5.1_A5.1_F5.1_[+9CCCT]_T5.1 (ssRNA) RNA: UUUGAUUAAUAUGAUAUCGUUCUUUCUUGUAUUAUUCCCUAUUCUUUCUCGAUAUCAUAUUAAUCUUU"
  pKd: 8.08
- Binder: "Ic_S4_P4E.1_K4.1_C4.1_H4.1_A4.1_[T5G]_[A6C]_[T7A]_F4.1_[T8C]_T4.1 (ssRNA) RNA: UUUGACAACUGAUCGUUCUUUCUUGUAGCACAUUCUUUCUCGAUCAGUUGUCUUU"
  pKd: 6.11
- Binder: "Ib_S2_P4E.1_K4.1_C4.1_H4.1_[G2T]_A4.1_[T5A]_F4.1_T4.1 (ssRNA) RNA: UUUGAUUAAUAUGAUAUCGUUCUUUCUUUUAAAUUAUUCUUUCUCGAUAUCAUAUUAAUCUUU"
  pKd: 5.72
- Binder: "UCUCUUUGUAACACCAUCUCUU (ssRNA) [Ic_S1_P5E.1_K5.1_C5.1_H5.1_A5.1_[T5A]_[T6C]_F5.1_[T8C]_[T9C]_T5.1]"
  pKd: 6.95
- Binder: "Id_ii_S4_P3E.4_K3.3_C3.2_[C-2A]_H3.3_A3.1_F3.1_T3.2_[A10C] (ssRNA) RNA: UUUGACAACUGAUCGUUCUUUCUAUACACUAUAUCUUCUUUCUCGAUCAGUUGUCUUU"
  pKd: 7.38
- Binder: "Ic_S4_P5E.1_K5.1_C5.1_H5.1_A5.1_[T6A]_[A7C]_F5.1_[T8A]_[T9C]_[A10T]_T5.1 (ssRNA) RNA: UUUGACAACUGAUCGUUCUUUCUUGUAUACACUUUCUUUCUCGAUCAGUUGUCUUU"
  pKd: 7.12
- Binder: "UCUCUUUGUACAGCCAUCUCUU (ssRNA) [Ic_S1_P5E.1_K5.1_C5.1_H5.1_A5.1_[T5C]_[T6A]_[A7G]_F5.1_[T8C]_[T9C]_T5.1]"
  pKd: 6.50
- Binder: "UCUCUUAAUGUAUAUACCUCUCUU (ssRNA) [Id_ii_S1_P3E.2_K3.1_C3.2_[C-2A]_[T-1A]_H3.1_A3.1_F3.1_T3.2_[T9C]_[A10C]]"
  pKd: 7.78
- Binder: "Ia_S4_P5E.1_K5.1_C5.1_H5.1_A5.1_F5.1_[T9C]_T5.1 (ssRNA) RNA: UUUGACAACUGAUCGUUCUUUCUUGUAUUAUCAUUCUUUCUCGAUCAGUUGUCUUU"
  pKd: 7.14
